- Target of assay: D(2) dopamine receptor (Homo sapiens, UniProt P14416)
- Sequence (P14416 whole entry): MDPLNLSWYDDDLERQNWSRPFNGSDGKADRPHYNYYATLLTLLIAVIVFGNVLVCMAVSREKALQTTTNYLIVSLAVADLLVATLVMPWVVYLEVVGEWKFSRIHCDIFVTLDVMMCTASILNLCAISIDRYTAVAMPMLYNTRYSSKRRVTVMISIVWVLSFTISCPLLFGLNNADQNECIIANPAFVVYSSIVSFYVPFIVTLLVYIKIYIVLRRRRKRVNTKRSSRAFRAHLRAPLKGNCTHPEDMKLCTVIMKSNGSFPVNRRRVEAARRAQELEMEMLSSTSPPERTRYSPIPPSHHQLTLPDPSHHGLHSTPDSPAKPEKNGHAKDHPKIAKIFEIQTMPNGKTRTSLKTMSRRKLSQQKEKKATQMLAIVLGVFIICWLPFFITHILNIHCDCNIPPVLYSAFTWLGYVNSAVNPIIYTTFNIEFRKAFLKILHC
- Assay explanation: Binding affinity to dopamine D2 receptor
pKi: −log10 of the molar value.
Condition met means recorded pKi is 6 or above; Condition not met means it is below 6.

Query :: Is reported pKi greater than or equal to 6 here: CN1CCc2cc(Cl)c(O)cc2[C@H]2c3ccc(NC(=O)C4CC4)cc3CC[C@@H]21
Result :: Condition not met

* * *

- Target of assay: D(1A) dopamine receptor (Homo sapiens)
- Sequence (P21728 whole entry): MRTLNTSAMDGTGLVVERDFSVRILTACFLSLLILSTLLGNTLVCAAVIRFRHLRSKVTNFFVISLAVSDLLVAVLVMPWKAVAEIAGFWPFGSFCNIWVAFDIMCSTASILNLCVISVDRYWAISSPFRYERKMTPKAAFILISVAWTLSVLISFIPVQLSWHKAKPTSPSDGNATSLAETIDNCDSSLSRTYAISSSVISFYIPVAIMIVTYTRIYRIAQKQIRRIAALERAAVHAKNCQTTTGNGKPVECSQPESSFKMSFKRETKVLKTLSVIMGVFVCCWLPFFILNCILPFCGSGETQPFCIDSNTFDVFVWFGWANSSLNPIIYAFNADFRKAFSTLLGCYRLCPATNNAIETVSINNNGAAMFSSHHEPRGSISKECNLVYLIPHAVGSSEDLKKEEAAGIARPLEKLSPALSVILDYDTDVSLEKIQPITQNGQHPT
- Assay explanation: Binding affinity to dopamine D1 receptor
Field: label. Allowed values: T (Ki < 2 nM) or F (Ki >= 2 nM).

Take a look at these entries with their results.
Query :: Decide: Ki of CN1CCc2cc(Cl)c(O)cc2[C@H]2c3ccc(N)cc3CC[C@@H]21 strictly below 2 nM?
Result :: F

Query :: Consider CC(=O)N(Cc1ccc([C@H]2CN(C)CCc3cc(Cl)c(O)cc32)cc1)C1CCC1 . Does its Ki lie strictly below 2 nM?
Result :: T

Query :: # TODO verify Ki < 2 nM strictly for this compound: CN1CCc2cc(Cl)c(O)cc2[C@H]2c3cccc(NS(C)(=O)=O)c3CC[C@@H]21
Result :: F

Next:
Query :: is_below(Ki, 2 nM) for CN1CCc2cc(Cl)c(O)cc2[C@H]2c3ccc(NS(C)(=O)=O)cc3CC[C@@H]21 ?
Result :: T

Query :: Decide: Ki of CCNC(=O)Nc1cccc2c1CC[C@H]1[C@H]2c2cc(O)c(Cl)cc2CCN1C strictly below 2 nM?
Result :: F

* * *

- Target of assay: D(4) dopamine receptor (Homo sapiens)
- Sequence (P21917 whole entry): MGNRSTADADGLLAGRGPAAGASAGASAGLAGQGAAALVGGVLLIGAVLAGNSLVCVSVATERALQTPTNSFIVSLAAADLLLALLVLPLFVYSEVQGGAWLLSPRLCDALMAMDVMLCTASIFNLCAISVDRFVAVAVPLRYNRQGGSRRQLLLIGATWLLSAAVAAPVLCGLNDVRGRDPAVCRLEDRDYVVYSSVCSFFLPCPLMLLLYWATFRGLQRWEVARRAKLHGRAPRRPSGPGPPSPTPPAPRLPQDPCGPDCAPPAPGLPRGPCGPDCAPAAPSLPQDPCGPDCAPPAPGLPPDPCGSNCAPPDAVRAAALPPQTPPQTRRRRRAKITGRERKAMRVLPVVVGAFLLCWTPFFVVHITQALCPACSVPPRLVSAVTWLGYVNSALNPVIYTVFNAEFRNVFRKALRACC
Readout: Ki

Query :: Would you please give the reported Ki of CCS(=O)(=O)Nc1ccc2c(c1)CC[C@H]1[C@H]2c2cc(O)c(Cl)cc2CCN1C with D(4) dopamine receptor (Homo sapiens)?
Result :: > 10 µM

***
Query :: Specify the recorded Ki for CN1CCc2cc(Cl)c(O)cc2[C@@H](c2ccc(CN(C3CCC3)S(C)(=O)=O)cc2)C1 , system: D(4) dopamine receptor (Homo sapiens).
Result :: > 10 µM

Query :: Enter measured Ki, system D(4) dopamine receptor (Homo sapiens), for the compound shown: CN1CCc2cc(Cl)c(O)cc2[C@@H](c2ccc(CNC3CCC3)cc2)C1
Result :: > 10 µM

Query :: # lookup: D(4) dopamine receptor (Homo sapiens) Ki, key = CCNC(=O)Nc1ccc2c(c1)CC[C@H]1[C@H]2c2cc(O)c(Cl)cc2CCN1C
Result :: > 10 µM

Query :: Please respond with reported Ki (system D(4) dopamine receptor (Homo sapiens)) for CC(=O)N(Cc1ccc([C@H]2CN(C)CCc3cc(Cl)c(O)cc32)cc1)C1CCC1 .
Result :: > 10 µM

Just for reference, ChEMBL document CHEMBL1156835 is where these values come from.
